biological target: GSK-3β, (AA 1-420) (Homo sapiens, UniProt P49841)
Sequence (P49841 whole entry, the tested form may be a part): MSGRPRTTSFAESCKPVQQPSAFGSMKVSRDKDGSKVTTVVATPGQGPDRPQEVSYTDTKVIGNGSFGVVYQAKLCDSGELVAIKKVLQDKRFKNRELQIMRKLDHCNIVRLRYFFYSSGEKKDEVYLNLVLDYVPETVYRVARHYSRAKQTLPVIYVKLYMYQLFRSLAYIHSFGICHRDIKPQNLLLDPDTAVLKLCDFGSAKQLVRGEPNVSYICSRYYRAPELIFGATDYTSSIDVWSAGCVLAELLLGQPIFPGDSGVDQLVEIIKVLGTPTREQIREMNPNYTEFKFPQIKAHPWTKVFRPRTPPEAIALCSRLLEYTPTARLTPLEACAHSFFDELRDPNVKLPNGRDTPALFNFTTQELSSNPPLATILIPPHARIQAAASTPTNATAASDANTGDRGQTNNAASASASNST
Measurement Name: Ki

INSERT INTO assay_data (smiles_notation, measurement_name, observed_value) VALUES
  ('CS(=O)(=O)n1ccc2cc(-c3cnc4[nH]cc(-c5oncc5-c5cccc(F)c5F)c4c3)cnc21', 'Ki', '< 200 nM'),
  ('CN(C)c1ccnc(-c2cnc3[nH]cc(-c4oncc4-c4cccc(F)c4F)c3c2)c1', 'Ki', '1000 to 12500 nM'),
  ('Fc1ccc(-c2cnc3[nH]cc(-c4oncc4-c4cccc(F)c4F)c3c2)cn1', 'Ki', '< 200 nM'),
  ('CN(C)Cc1ccc(-c2cnc3[nH]cc(-c4oncc4-c4cccc(F)c4F)c3c2)cc1', 'Ki', '1000 to 12500 nM');

----------
Observed pKi for GSK-3β, (AA 1-420) (Homo sapiens, UniProt P49841), reported per entry below.
pKi: −log10 of the molar value.
Measurement Name: pKi

INSERT INTO measurements (compound, tested_target, observed_value) VALUES
  ('CN1CCN(c2ccc(-c3cnc4[nH]cc(-c5oncc5-c5cccc(F)c5F)c4c3)cc2)CC1 [Compound 70, methanesulfonate]', 'GSK-3β, (AA 1-420) (Homo sapiens, UniProt P49841)', '> 6.70'),
  ('Cc1noc(-c2c[nH]c3ncc(-c4ccc(N5CCN(C)CC5)cc4)cc23)c1-c1cccc(F)c1F', 'GSK-3β, (AA 1-420) (Homo sapiens, UniProt P49841)', '> 6.70'),
  ('CN1CCCN(c2ccc(-c3cnc4[nH]cc(-c5nncn5-c5cccc(F)c5F)c4c3)cn2)CC1', 'GSK-3β, (AA 1-420) (Homo sapiens, UniProt P49841)', '6.00 to 6.70'),
  ('CN1CCN(c2ccc(-c3cnc4[nH]cc(-c5nncn5-c5cccc(F)c5F)c4c3)cn2)CC1', 'GSK-3β, (AA 1-420) (Homo sapiens, UniProt P49841)', '6.00 to 6.70'),
  ('COc1ccnc(-c2cnc3[nH]cc(-c4oncc4-c4cccc(F)c4F)c3c2)c1', 'GSK-3β, (AA 1-420) (Homo sapiens, UniProt P49841)', '6.00 to 6.70'),
  ('COc1cnc2[nH]cc(-c3oncc3-c3cccc(Cl)c3Cl)c2c1', 'GSK-3β, (AA 1-420) (Homo sapiens, UniProt P49841)', '6.00 to 6.70'),
  ('Clc1cccc(-c2cnoc2-c2c[nH]c3ncc(-c4cccnc4)cc23)c1Cl', 'GSK-3β, (AA 1-420) (Homo sapiens, UniProt P49841)', '> 6.70'),
  ('COc1cnc2[nH]cc(-c3nncn3-c3cccc(F)c3F)c2c1', 'GSK-3β, (AA 1-420) (Homo sapiens, UniProt P49841)', '4.90 to 6.00');

----------
Recorded pKi values for a group of molecules are listed next.
Molecular target: Aurora-2 (Homo sapiens, UniProt O14965)
Construct: addition of 10 μL of Aurora-2 stock solution to give a final concentration of 70 nM
Sequence (O14965 1-403): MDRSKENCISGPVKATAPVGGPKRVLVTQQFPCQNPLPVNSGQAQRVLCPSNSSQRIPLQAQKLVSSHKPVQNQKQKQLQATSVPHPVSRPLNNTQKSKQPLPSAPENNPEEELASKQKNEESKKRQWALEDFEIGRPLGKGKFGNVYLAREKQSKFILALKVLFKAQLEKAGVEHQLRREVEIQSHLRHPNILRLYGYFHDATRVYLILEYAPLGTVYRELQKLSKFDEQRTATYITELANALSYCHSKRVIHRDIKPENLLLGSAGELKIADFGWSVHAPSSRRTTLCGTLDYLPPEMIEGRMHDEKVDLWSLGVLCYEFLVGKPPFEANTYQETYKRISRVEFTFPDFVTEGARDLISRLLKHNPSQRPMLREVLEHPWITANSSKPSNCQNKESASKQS
Experiment: Inhibition of AUR-2, coupled enzyme assay
Type: biochemical
Conditions: 70 nM Aurora-2, 800 μM peptide LRRASLG, 30° C.
pKi: −log10 of the molar value.
Measurement Name: pKi

INSERT INTO measurements (molecule, observed_value) VALUES
  ('Fc1cccc(-c2cnoc2-c2c[nH]c3ncc(Br)cc23)c1F [Compound 37]', '> 6.70'),
  ('CN1CCN(c2ccc(-c3cnc4[nH]cc(-c5oncc5-c5cccc(F)c5F)c4c3)cc2)CC1 [Compound 70, methanesulfonate]', '> 6.70'),
  ('COc1cnc2[nH]cc(-c3oncc3-c3cccc(Cl)c3Cl)c2c1 [Compound 49]', '> 6.70'),
  ('Clc1cccc(-c2cnoc2-c2c[nH]c3ncccc23)c1Cl [Compound 2]', '6.00 to 6.70'),
  ('CN1CCN(c2ccc(-c3cnc4[nH]cc(-c5oncc5-c5cccc(F)c5F)c4c3)cn2)CC1 [Compound 71]', '> 6.70'),
  ('Oc1cnc2[nH]cc(-c3oncc3-c3cccc(F)c3F)c2c1 [Compound 43]', '6.00 to 6.70'),
  ('Fc1cccc(-c2cnoc2-c2c[nH]c3ncc(Cl)cc23)c1F [Compound 44]', '> 6.70'),
  ('Clc1cccc(-c2cnoc2-c2c[nH]c3ncc(-c4cccnc4)cc23)c1Cl [Compound 99]', '> 6.70');

----------
Recorded Ki values for a group of compounds are listed next.
target: TAK1A-TAB fusion protein (Homo sapiens); construct: using 20 nM TAK1A-TAB fusion protein; test: TAK-1 inhibition assay, radiometric filter binding assay; conditions: 50 μM ATP, 12 μM bovine myelin basic protein, 20 nM TAK1A-TAB fusion protein
Sequence (O43318 with tags, fused parts or gaps isoform O43318-2 limits assumed): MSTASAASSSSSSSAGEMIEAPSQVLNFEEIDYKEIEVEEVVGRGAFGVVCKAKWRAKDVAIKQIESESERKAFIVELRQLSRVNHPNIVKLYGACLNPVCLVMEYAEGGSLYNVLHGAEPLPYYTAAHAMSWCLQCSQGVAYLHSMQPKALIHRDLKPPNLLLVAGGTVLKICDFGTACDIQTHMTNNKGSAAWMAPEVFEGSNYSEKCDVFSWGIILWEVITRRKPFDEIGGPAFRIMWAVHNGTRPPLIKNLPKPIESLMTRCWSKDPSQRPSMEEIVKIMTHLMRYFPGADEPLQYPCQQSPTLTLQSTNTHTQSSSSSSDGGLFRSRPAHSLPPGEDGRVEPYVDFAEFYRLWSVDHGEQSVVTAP
Measurement Name: Ki

INSERT INTO results (compound, observed_value) VALUES
  ('CS(=O)(=O)NC1CC=C(c2cnc3[nH]cc(-c4oncc4-c4cccc(F)c4F)c3c2)CC1 (stereo not shown)', '< 0.2 µM'),
  ('Fc1cccc(-c2cnoc2-c2c[nH]c3ncc(C4CCNCC4)cc23)c1F', '1 to 12.5 µM'),
  ('Oc1cnc2[nH]cc(-c3oncc3-c3cccc(Cl)c3Cl)c2c1', '0.2 to 1 µM'),
  ('Fc1cccc(-n2cnnc2-c2c[nH]c3ncc(-c4cccnc4)cc23)c1F', '1 to 12.5 µM');

----------
Molecular target: FLT-3 (Homo sapiens, UniProt P36888)
Sequence (P36888 27-993): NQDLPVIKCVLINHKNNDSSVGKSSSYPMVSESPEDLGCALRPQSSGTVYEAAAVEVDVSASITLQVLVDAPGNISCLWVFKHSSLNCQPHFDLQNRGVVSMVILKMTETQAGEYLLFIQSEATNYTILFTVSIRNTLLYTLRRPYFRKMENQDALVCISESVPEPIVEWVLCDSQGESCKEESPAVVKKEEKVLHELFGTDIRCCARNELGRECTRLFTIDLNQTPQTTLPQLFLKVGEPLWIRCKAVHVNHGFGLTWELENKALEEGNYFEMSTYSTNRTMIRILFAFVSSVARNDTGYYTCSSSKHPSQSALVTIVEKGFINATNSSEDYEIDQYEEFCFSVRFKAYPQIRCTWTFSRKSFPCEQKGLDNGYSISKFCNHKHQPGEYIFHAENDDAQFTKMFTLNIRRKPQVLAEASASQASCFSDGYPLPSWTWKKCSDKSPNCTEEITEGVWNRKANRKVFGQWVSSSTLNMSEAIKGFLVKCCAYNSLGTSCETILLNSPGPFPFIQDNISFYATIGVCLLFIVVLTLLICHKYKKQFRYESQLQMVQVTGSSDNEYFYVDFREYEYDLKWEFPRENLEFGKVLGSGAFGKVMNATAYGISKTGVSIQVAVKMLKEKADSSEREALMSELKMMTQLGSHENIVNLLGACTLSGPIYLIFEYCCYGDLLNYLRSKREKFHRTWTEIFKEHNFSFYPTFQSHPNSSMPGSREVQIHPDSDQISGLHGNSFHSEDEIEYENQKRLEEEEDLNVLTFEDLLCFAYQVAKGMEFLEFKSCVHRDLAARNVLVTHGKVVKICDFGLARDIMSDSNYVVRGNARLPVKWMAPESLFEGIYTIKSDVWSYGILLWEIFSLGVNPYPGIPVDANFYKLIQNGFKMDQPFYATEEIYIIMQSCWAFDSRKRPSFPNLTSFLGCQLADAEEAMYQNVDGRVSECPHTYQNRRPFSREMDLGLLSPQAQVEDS
Measurement Name: Ki

INSERT INTO measurements (compound, observed_value) VALUES
  ('CCN1CCC(c2cnc3[nH]cc(-c4oncc4-c4cccc(F)c4F)c3c2)CC1', '1000 to 12500 nM'),
  ('CN(C)C1CCC(c2cnc3[nH]cc(-c4oncc4-c4cccc(F)c4F)c3c2)CC1 (stereo not drawn)', '200 to 1000 nM'),
  ('CN(C)c1cccc(-c2cnc3[nH]cc(-c4oncc4-c4cccc(F)c4F)c3c2)c1', '200 to 1000 nM'),
  ('COc1cnc2[nH]cc(-c3nncn3-c3cccc(F)c3F)c2c1', '1000 to 12500 nM'),
  ('Oc1cccc(-c2cnc3[nH]cc(-c4oncc4-c4cccc(F)c4F)c3c2)c1', '< 200 nM'),
  ('COc1cnc2[nH]cc(-c3oncc3-c3cccc(F)c3F)c2c1', '< 200 nM'),
  ('Fc1cccc(-c2cnoc2-c2c[nH]c3ncc(-c4c[nH]cn4)cc23)c1F', '< 200 nM'),
  ('CN(C)C(=O)c1ccc(-c2cnc3[nH]cc(-c4oncc4-c4cccc(F)c4F)c3c2)nc1', '< 200 nM'),
  ('CS(=O)(=O)Nc1ccc(-c2cnc3[nH]cc(-c4oncc4-c4cccc(F)c4F)c3c2)cc1', '< 200 nM'),
  ('Oc1cnc2[nH]cc(-c3oncc3-c3cccc(Cl)c3Cl)c2c1', '200 to 1000 nM'),
  ('CS(=O)(=O)NC1CC=C(c2cnc3[nH]cc(-c4oncc4-c4cccc(F)c4F)c3c2)CC1 (stereo not drawn)', '< 200 nM'),
  ('Nc1[nH]c2ncccc2c1-c1oncc1-c1cccc(F)c1F', '1000 to 12500 nM'),
  ('CNc1ccc2c(-c3oncc3-c3cccc(F)c3F)c[nH]c2n1', '1000 to 12500 nM'),
  ('CN(C)Cc1ccc(-c2cnc3[nH]cc(-c4oncc4-c4cccc(F)c4F)c3c2)nc1', '< 200 nM'),
  ('OCc1cnc2[nH]cc(-c3oncc3-c3cccc(F)c3F)c2c1', '1000 to 12500 nM');
